# Test system: ATP;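 also: ATP exposure 15 min at 22 °C before imaging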
# assayExplanation: switch fluorescence ratio, 500 uM ATP over buffer (Cy3 cluster intensity, sum of 5 cycles each) (fold (ratio)); higher = stronger signal-on switching upon ATP binding; sequences stand for … in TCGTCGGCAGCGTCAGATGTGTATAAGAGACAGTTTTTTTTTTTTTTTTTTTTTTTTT…TC
# testContext: aptamer strand: ATP DNA aptamer (quencher-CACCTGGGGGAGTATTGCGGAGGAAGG + anchor), 100 nM annealed; ATP concentration: 500 uM
Where switch fluorescence ratio equals or exceeds 1, the correct label is criterion met; where it does not, the label is criterion not met.

[in] Check if switch fluorescence ratio >= 1 (inclusive). Item: `ACTAGGGTGC`
[out] criterion met

[in] Record: `TCGTACAGGG`
[out] criterion met

[in] Record: `TTAAGTAGTA`
[out] criterion not met

[in] Record: `AACGGATTCT`
[out] criterion met

[in] Record: `CGCAAACGCA`
[out] criterion met

###

# System: ATP;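 also: ATP exposure 15 min at 22 °C before imaging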
# assayExplanation: switch fluorescence ratio, 500 uM ATP over buffer (Cy3 cluster intensity, sum of 5 cycles each) (fold (ratio)); higher = stronger signal-on switching upon ATP binding; sequences stand for … in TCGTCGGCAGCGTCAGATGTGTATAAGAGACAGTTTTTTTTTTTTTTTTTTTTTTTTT…TC
# testContext: aptamer strand: ATP DNA aptamer (quencher-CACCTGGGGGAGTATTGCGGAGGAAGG + anchor), 100 nM annealed; ATP concentration: 500 uM
outcomeMeasure: switch fluorescence ratio
The reply should be a number, written without any unit.

[in] I'm curious: which switch fluorescence ratio was measured for `AGTCGCGGAG` tested on ATP?;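 also: ATP exposure 15 min at 22 °C before imaging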
[out] 1

[in] Record: `AACGCCAGGC`
[out] 1.01

[in] Record: `TTATTATTTC`
[out] 0.98

[in] Record: `CCAATAAATT`
[out] 0.974

[in] Record: `TGTATTATGT`
[out] 1

[in] Record: `TCAGACTTGC`
[out] 1

[in] Record: `AGTTTAAGTG`
[out] 1.01

[in] Record: `AAGAAGTTTG`
[out] 0.988

[in] Record: `TGAGGGGGGG`
[out] 0.999

[in] Record: `GCTTTTTCTT`
[out] 1.02

[in] Record: `TGTGGAGAGC`
[out] 0.999

[in] Record: `TATGATCTAG`
[out] 0.995

[in] Record: `CTAATTTAGT`
[out] 1.01

[in] Record: `TTTTTAGTAA`
[out] 0.979

[in] Record: `ATGCTCAGTT`
[out] 0.984

[in] Record: `TGAAAAAGTG`
[out] 0.994

[in] Record: `GTTTGAGCAC`
[out] 1.02

[in] Record: `TTATTTCGTT`
[out] 0.989

[in] Record: `TTTGCTTGGG`
[out] 1.02

[in] Record: `AGGTTATTAT`
[out] 0.999

[in] Record: `AGCGATTGCC`
[out] 1.01

[in] Record: `TGGAATTAAC`
[out] 1.02

[in] Record: `TAATATGGTG`
[out] 0.998

[in] Record: `ACATTATCCA`
[out] 1.01

[in] Record: `GACTGCTTGG`
[out] 0.952

[in] Record: `ATGTTTTTTG`
[out] 0.982

[in] Record: `TAGGGCGGGG`
[out] 0.988

[in] Record: `GGGTGTTCCT`
[out] 0.989

[in] Record: `GGGGGGCAGT`
[out] 1

[in] Record: `TGGGGAAGTT`
[out] 1

[in] Record: `GGGGCATAGG`
[out] 0.978

[in] Record: `TTAAGGCAA`
[out] 1.12

[in] Record: `CGACGGGCGG`
[out] 1.02

[in] Record: `CACTCATACT`
[out] 1.16

[in] Record: `TCTTATAAAC`
[out] 1.02

[in] Record: `GGTTGTGGGA`
[out] 0.98

###

# Test system: ATP;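 also: ATP exposure 15 min at 22 °C before imaging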
# assayExplanation: switch fluorescence ratio, 500 uM ATP over buffer (Cy3 cluster intensity, sum of 5 cycles each) (fold (ratio)); higher = stronger signal-on switching upon ATP binding; sequences stand for … in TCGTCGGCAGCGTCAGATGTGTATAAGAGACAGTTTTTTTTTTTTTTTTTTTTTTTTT…TC
# testContext: aptamer strand: ATP DNA aptamer (quencher-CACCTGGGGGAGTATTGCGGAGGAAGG + anchor), 100 nM annealed; ATP concentration: 500 uM
outcomeMeasure: switch fluorescence ratio
The reply should be a number, written without any unit.

[in] Can you share its switch fluorescence ratio? I mean this sequence: `GGGGTTATAG`
[out] 1.04

[in] Record: `TTCGGTTAGT`
[out] 1

[in] Record: `GTTGGTACTT`
[out] 0.991

[in] Record: `CACGTGATTG`
[out] 1.02

[in] Record: `ATTAAATTCG`
[out] 1

[in] Record: `GCAGGCCCGA`
[out] 1.01

[in] Record: `ACTGGTTATC`
[out] 1.02

[in] Record: `GAGTTGGTCT`
[out] 1

[in] Record: `TTGCTTGGGC`
[out] 1.02

[in] Record: `CGAAGGTTTC`
[out] 1.03

[in] Record: `GGTGCGGGAC`
[out] 1.16

[in] Record: `TTGTTATTTT`
[out] 1

[in] Record: `AAAAACAGGG`
[out] 1.16

[in] Record: `CAATTTTCTT`
[out] 1.02

[in] Record: `TAGGGATCCC`
[out] 1.04

[in] Record: `TGTGGGGAGC`
[out] 0.995

[in] Record: `GTGTATAGTT`
[out] 1.02

[in] Record: `ATCATGGGAC`
[out] 1.03

[in] Record: `TGGTGATAGT`
[out] 0.965

[in] Record: `ATAAGCTTGC`
[out] 1.13

[in] Record: `AAGGTTATGT`
[out] 0.991

[in] Record: `TGGGGAATTC`
[out] 1.53

[in] Record: `GCTGGCAGAC`
[out] 1.23

[in] Record: `TGGGGAAAAG`
[out] 1.09

[in] Record: `GGTTTTAGGA`
[out] 0.987

[in] Record: `ATTCATGCTC`
[out] 1.03

[in] Record: `AAGGAAAGGG`
[out] 1.21

[in] Record: `AAAGTTTTCA`
[out] 1.02

[in] Record: `CCGGAATCAT`
[out] 1.13

[in] Record: `TGAATCAGG`
[out] 1.01

[in] Record: `AAAAGGTGG`
[out] 0.983

[in] Record: `TAGATTTCGT`
[out] 0.98

###

For each record, write down the corresponding switch fluorescence ratio.
# System: ATP;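 also: ATP exposure 15 min at 22 °C before imaging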
# assayExplanation: switch fluorescence ratio, 500 uM ATP over buffer (Cy3 cluster intensity, sum of 5 cycles each) (fold (ratio)); higher = stronger signal-on switching upon ATP binding; sequences stand for … in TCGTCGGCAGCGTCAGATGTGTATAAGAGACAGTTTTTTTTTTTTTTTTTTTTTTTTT…TC
# testContext: aptamer strand: ATP DNA aptamer (quencher-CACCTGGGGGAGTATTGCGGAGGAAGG + anchor), 100 nM annealed; ATP concentration: 500 uM
The reply should be a number, written without any unit.

[in] Can you share its switch fluorescence ratio? I mean this sequence: `GATATGGGGG`
[out] 1.01

[in] Record: `TCTATACTTT`
[out] 1

[in] Record: `GCCGCCTGAT`
[out] 0.986

[in] Record: `TAAAACCTAA`
[out] 1.12

[in] Record: `GGGTATTTTT`
[out] 0.994

[in] Record: `TTTAGTCATT`
[out] 0.989

[in] Record: `AGGGTTAGGG`
[out] 1.02

[in] Record: `GTGGGGTCCG`
[out] 0.99

###

For each record, write down the corresponding switch fluorescence ratio.
# Test system: ATP;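 also: ATP exposure 15 min at 22 °C before imaging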
# assayExplanation: switch fluorescence ratio, 500 uM ATP over buffer (Cy3 cluster intensity, sum of 5 cycles each) (fold (ratio)); higher = stronger signal-on switching upon ATP binding; sequences stand for … in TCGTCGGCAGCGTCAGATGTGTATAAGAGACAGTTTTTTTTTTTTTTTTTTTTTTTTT…TC
# testContext: aptamer strand: ATP DNA aptamer (quencher-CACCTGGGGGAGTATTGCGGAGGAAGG + anchor), 100 nM annealed; ATP concentration: 500 uM
The reply should be a number, written without any unit.

[in] I'm curious: which switch fluorescence ratio was measured for `AGACGAGAAT` tested on ATP?;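 also: ATP exposure 15 min at 22 °C before imaging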
[out] 1.09

[in] Record: `GGTTTTAACA`
[out] 1

[in] Record: `TAGGCGGAGC`
[out] 1.03

[in] Record: `GAGAGATTTT`
[out] 0.997

[in] Record: `CGCATTAAAA`
[out] 0.969

[in] Record: `GGGGTGTTGT`
[out] 1

[in] Record: `CAAAAGGGCC`
[out] 1.02

[in] Record: `AGAGTCAATG`
[out] 1.04

[in] Record: `TAAAGGGCGT`
[out] 0.967

[in] Record: `AGAGAGGGTG`
[out] 1.06

[in] Record: `TGGGGGGAC`
[out] 1.01

[in] Record: `TTTAGGAGGG`
[out] 0.997

[in] Record: `AGAATTGGCA`
[out] 1

[in] Record: `TTAAGAAATT`
[out] 1.01

[in] Record: `CGCGCAGGGG`
[out] 1.69

[in] Record: `CGACGTTGGT`
[out] 1.08

[in] Record: `TCTGTGGCTG`
[out] 1.05

[in] Record: `AGCAGAGTGC`
[out] 1.02

[in] Record: `TGGGTAATAT`
[out] 1.03

[in] Record: `CTAATATCAC`
[out] 1.02

[in] Record: `TGGTACATCA`
[out] 0.973

[in] Record: `ATACGTGGCA`
[out] 0.96

[in] Record: `AAGGAAGTGC`
[out] 1

[in] Record: `TTAGGGGATT`
[out] 1.01

[in] Record: `TTGACGAGTA`
[out] 1.1

[in] Record: `GTTCTGATGT`
[out] 1.01

[in] Record: `AAAGTTGGTA`
[out] 0.967

[in] Record: `CAGAGGGGGG`
[out] 0.994

[in] Record: `TTTTACGGGG`
[out] 1.02

[in] Record: `GGAATTTGGG`
[out] 0.99

[in] Record: `TGTTTGAAGG`
[out] 0.995

[in] Record: `TTTAAGGGTA`
[out] 0.994

[in] Record: `TTACTAAGGG`
[out] 1.04

[in] Record: `GCGAAGGGGT`
[out] 1.02

[in] Record: `CCGTCGAATA`
[out] 2.2

[in] Record: `TAGGCTGTAC`
[out] 2.84

[in] Record: `AGATACATAT`
[out] 1.05

[in] Record: `AGACCGAGAC`
[out] 1.18

[in] Record: `GGGATAGAGA`
[out] 1.02

[in] Record: `GGGGAGTTTA`
[out] 1.03

[in] Record: `TTGTTAGCCT`
[out] 1.05

[in] Record: `GGGTTATGTT`
[out] 0.977

[in] Record: `TCCACGTTGG`
[out] 1.01

[in] Record: `GGTGCTTATA`
[out] 1

[in] Record: `TGCATCATAA`
[out] 1.01

[in] Record: `CCTGGGAAGG`
[out] 0.991

[in] Record: `CGGAGCTCTG`
[out] 1.06

[in] Record: `AAGGCTGGGG`
[out] 0.978

[in] Record: `GTCAGTAGGC`
[out] 0.991

[in] Record: `TGGTTTGGTA`
[out] 0.961

[in] Record: `TAGATCATGT`
[out] 1.02

[in] Record: `GCATTTGATG`
[out] 1.02

[in] Record: `GGATGTGCTG`
[out] 1.04

[in] Record: `GCTCCTACGA`
[out] 1.46

[in] Record: `GGATGCATTG`
[out] 0.972

[in] Record: `TGGTAAGGGG`
[out] 1.12

[in] Record: `TGTTCCGCTT`
[out] 2.16

[in] Record: `ATCTGTTGTC`
[out] 1.06

[in] Record: `CCTGAGTCTG`
[out] 1.57

[in] Record: `CGATGTGTAC`
[out] 2.71

[in] Record: `TTTGGCTTAG`
[out] 0.991

[in] Record: `AATTAGGGTG`
[out] 1.09

[in] Record: `TTCGGGGGGG`
[out] 1.01

[in] Record: `TGGGGGGACC`
[out] 1.03

[in] Record: `TGTGTTACTT`
[out] 0.999

[in] Record: `CTTTTGAAGT`
[out] 0.983

[in] Record: `TTTTCAAAAA`
[out] 1.13

[in] Record: `TCCTGGGTTT`
[out] 1.27

[in] Record: `TATTTAGTAT`
[out] 0.99

[in] Record: `CGATCCGGGA`
[out] 0.998
